Biological target: Xanthine dehydrogenase/oxidase (Bos taurus, UniProt P80457)
Sequence (P80457 whole entry): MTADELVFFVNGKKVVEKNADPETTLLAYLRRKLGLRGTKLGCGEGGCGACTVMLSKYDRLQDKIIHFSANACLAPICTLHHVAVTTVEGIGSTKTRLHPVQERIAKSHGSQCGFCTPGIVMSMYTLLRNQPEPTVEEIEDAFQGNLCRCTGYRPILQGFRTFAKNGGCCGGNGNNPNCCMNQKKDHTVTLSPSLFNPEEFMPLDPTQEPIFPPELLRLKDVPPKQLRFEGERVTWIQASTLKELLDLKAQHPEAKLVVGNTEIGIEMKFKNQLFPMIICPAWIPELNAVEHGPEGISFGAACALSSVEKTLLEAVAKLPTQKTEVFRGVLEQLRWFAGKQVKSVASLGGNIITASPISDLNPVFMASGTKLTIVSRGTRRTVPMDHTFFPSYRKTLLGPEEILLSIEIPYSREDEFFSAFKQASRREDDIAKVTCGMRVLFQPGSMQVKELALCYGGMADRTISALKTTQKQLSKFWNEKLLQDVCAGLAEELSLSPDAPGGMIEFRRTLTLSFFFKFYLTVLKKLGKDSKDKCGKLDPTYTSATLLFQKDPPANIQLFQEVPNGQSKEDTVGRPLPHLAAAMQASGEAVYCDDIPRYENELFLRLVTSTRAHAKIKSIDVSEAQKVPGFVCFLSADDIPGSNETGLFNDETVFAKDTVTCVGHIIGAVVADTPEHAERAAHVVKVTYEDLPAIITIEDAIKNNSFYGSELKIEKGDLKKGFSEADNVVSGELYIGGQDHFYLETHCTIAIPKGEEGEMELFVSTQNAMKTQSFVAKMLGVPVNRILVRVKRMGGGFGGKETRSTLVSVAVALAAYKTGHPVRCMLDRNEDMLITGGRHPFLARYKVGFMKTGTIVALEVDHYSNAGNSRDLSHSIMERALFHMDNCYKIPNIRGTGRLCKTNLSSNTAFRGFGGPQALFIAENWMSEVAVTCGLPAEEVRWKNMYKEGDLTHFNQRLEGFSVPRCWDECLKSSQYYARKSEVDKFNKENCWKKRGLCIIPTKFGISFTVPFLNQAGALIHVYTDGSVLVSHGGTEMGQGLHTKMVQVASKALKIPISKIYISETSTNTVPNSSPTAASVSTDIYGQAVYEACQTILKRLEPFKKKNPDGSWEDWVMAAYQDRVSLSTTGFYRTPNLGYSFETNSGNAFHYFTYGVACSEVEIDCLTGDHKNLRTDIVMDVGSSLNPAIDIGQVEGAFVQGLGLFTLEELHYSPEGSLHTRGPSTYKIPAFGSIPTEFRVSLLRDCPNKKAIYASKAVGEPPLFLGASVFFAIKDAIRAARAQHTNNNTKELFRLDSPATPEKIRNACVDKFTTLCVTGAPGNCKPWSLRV
Assay: Inhibition of cow milk xanthine oxidase at 50 ug/mL
Conditions: cattle
Label yes (1) when inhibition at 50 µg/mL is at or above 20%; anything below gets no (0).

Input line: Does COc1ccc(-c2coc3cc(O)c(OC)c(O)c3c2=O)cc1O [IRISTECTORIGENIN A] have a reported inhibition at 50 µg/mL of at least 20%?
Output line: no (0)

Input line: Does O=c1cc(-c2ccccc2)oc2ccccc12 [FLAVONE] have a reported inhibition at 50 µg/mL of at least 20%?
Output line: no (0)

Input line: Does O=c1c(O[C@@H]2O[C@H](CO)[C@H](O)[C@H](O)[C@H]2O)c(-c2ccc(O)c(O)c2)oc2cc(O)cc(O)c12 [HYPEROSIDE] have a reported inhibition at 50 µg/mL of at least 20%?
Output line: yes (1)

Input line: Does O=C1C[C@@H](c2ccc(O)cc2)Oc2cc(O[C@@H]3O[C@H](CO)[C@@H](O)[C@H](O)[C@H]3O)cc(O)c21 [PRUNIN] have a reported inhibition at 50 µg/mL of at least 20%?
Output line: no (0)

Input line: Does O=c1c(O[C@@H]2O[C@H](CO)[C@H](O)[C@H](O)[C@H]2O)c(-c2ccc(O)cc2)oc2cc(O)cc(O)c12 [TRIFOLIN] have a reported inhibition at 50 µg/mL of at least 20%?
Output line: no (0)

Input line: Does COc1cc(-c2coc3cc4c(c(OC)c3c2=O)OCO4)cc(OC)c1OC [IRISFLORENTIN] have a reported inhibition at 50 µg/mL of at least 20%?
Output line: no (0)

Input line: Does O=C(O)[C@H]1O[C@@H](Oc2c(-c3ccc(O)c(O)c3)oc3cc(O)cc(O)c3c2=O)[C@H](O)[C@@H](O)[C@@H]1O [QUERCETIN GLUCURONIDE] have a reported inhibition at 50 µg/mL of at least 20%?
Output line: yes (1)
